Attribution: paper PMC11728977

# Target Under Test: PKAc:AMP-PNP (Mus musculus, UniProt P05132)
# Construct: 6xHis (N, cleaved yes); made in house; host or cells: Escherichia coli Rosetta (DE3)pLysS
# Assay Details: Isothermal titration calorimetry of substrates binding to PKAc:AMP-PNP
# Condition Parameters: 4 °C, 0.5 mM AMP-PNP, 5 mM MgCl2

- Substance: "SRKMAFRAKSKSCHD [Rad S300 peptide, Rad-derived peptide, residues 289–303 containing Ser300]"
  binding to PKAc detected by ITC: "not"
- Substance: "WGPAPPLHRRSMP [Rad S38 peptide, Rad-derived peptide, residues 28–40 containing Ser38]"
  binding to PKAc detected by ITC: "not"
